compounds and their reported pIC50
# target under test: FL hMALT1 enzyme (Homo sapiens)
# assay protocol: biochemical
As a rule, pIC50 stands for the negative log10 of the concentration, concentration in M.

compound: CCc1cccc2c1CC(Nc1ccc([C@H](N(C)C(=O)C3CCS(=O)(=O)CC3)C(F)(F)F)nc1)C2 (single isomer, unassigned) [Example 197]
pIC50: 5.59

State pIC50 on FL hMALT1 enzyme (Homo sapiens). Entry: Cc1c(Cl)ccc2c1CC(Nc1ccc([C@H](N(C)C(=O)C3CCS(=O)(=O)CC3)C(F)(F)F)nc1)C2 (single isomer, unassigned) [Example 373]
6.31

###

# target under test: FL hMALT1 enzyme (Homo sapiens, UniProt Q9UDY8)
# Sequence (Q9UDY8 whole entry): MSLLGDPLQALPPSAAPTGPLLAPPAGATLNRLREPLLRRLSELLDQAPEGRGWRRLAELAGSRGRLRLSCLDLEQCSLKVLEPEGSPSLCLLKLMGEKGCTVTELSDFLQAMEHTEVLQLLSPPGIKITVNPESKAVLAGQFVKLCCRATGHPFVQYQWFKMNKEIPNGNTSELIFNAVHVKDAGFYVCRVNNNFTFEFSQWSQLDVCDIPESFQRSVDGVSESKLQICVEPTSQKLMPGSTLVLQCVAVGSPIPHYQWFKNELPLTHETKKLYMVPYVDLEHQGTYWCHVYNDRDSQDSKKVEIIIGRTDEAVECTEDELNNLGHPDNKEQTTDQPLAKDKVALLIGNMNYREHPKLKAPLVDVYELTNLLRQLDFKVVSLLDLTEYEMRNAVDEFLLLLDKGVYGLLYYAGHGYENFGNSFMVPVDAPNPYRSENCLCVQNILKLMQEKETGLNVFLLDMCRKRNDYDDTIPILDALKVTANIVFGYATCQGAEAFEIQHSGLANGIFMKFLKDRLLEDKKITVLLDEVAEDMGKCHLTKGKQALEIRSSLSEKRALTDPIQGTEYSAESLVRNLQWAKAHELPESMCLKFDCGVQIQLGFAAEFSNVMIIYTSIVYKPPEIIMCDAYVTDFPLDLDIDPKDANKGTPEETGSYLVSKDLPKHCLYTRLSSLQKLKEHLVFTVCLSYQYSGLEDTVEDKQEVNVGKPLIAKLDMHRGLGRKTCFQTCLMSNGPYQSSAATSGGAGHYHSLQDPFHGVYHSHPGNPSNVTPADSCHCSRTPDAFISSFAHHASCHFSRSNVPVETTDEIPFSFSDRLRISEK
# assay protocol: biochemical
compounds and their reported log10(IC50)
Please note: log10 values; quantity IC50; unit nM.

Completed entries (count: 3):
compound: CN(C(=O)C1C2CS(=O)(=O)CC21)[C@@H](c1ccc(NC2Cc3ccccc3C2(C)C)cn1)C(F)(F)F (single isomer, unassigned) [Example 214]
target under test: FL hMALT1 enzyme (Homo sapiens, UniProt Q9UDY8)
assay value: 2.51
//
compound: CN1CC(C(=O)N(C)[C@@H](c2ccc(NC3Cc4ccccc4C3(C)C)cc2)C(F)(F)F)C1 (single isomer, unassigned) [Example 76]
target under test: FL hMALT1 enzyme (Homo sapiens, UniProt Q9UDY8)
assay value: 1.56
//
compound: CN(C(=O)C1CNC(=O)CO1)[C@@H](c1ccc(NC2Cc3ccccc3C2(C)C)cn1)C(F)(F)F (single isomer, unassigned) [Example 137]
target under test: FL hMALT1 enzyme (Homo sapiens, UniProt Q9UDY8);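 note: Cell-free protease assay: enzyme preincubated with compound 30 min at room temperature, then cleavage of fluorogenic Ac-LVSR-AMC substrate (100 µM) tracked by fluorescence (ex 360/em 460 nm)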
assay value: 2.18

Complete the entry with log10(IC50) for CN(C(=O)[C@@H]1CNC(=O)C1)[C@@H](c1ccc(NC2Cc3ccc(Cl)c(C4CC4)c3C2)cn1)C(F)(F)F (single isomer, unassigned) [Example 328]
1.26

Complete the entry with log10(IC50) for CN(C(=O)CN1CCCC1=O)[C@@H](c1ccc(NC2Cc3ccccc3C2(C)C)cc1)C(F)(F)F (single isomer, unassigned) [Example 45]
2.26

Complete the entry with log10(IC50) for CN(C(=O)C1CCS(=O)(=O)CC1)[C@@H](c1ccc(NC2Cc3cccc(C4CC4)c3C2)cn1)C(F)(F)F (single isomer, unassigned) [Example 254]
1.72

Complete the entry with log10(IC50) for CN(C(=O)C1CCS(=O)(=O)CC1)[C@@H](c1ccc(NC2Cc3cc(Cl)cc(Cl)c3C2)cn1)C(F)(F)F (single isomer, unassigned) [Example 283]
2.96

Complete the entry with log10(IC50) for CN(C(=O)C1CCS(=O)(=O)CC1)[C@@H](c1ccc(NC2Cc3cc(F)cc(Cl)c3C2)cn1)C(F)(F)F (single isomer, unassigned) [Example 286]
2.86

Complete the entry with log10(IC50) for CN1CCCC(C(=O)N(C)[C@@H](c2ccc(NC3Cc4ccccc4C3(C)C)cn2)C(F)(F)F)C1 (single isomer, unassigned) [Example 130]
2.08

Complete the entry with log10(IC50) for CN(C(=O)C1CCNC(=O)C1)[C@@H](c1ccc(NC2Cc3ccccc3C2(C)C)cn1)C(F)(F)F (single isomer, unassigned) [Example 116]
1.83

Complete the entry with log10(IC50) for CN(C(=O)C1COCC(=O)N1)[C@@H](c1ccc(NC2Cc3ccccc3C2(C)C)cn1)C(F)(F)F (single isomer, unassigned) [Example 162]
2.04

Complete the entry with log10(IC50) for CC(=O)NCCC(=O)N(C)[C@@H](c1ccc(NC2Cc3ccccc3C2(C)C)cc1)C(F)(F)F (single isomer, unassigned) [Example 24]
1.95

Complete the entry with log10(IC50) for CN(C(=O)[C@H]1C[C@]2(CCN2C)C1)[C@@H](c1ccc(NC2Cc3ccccc3C2(C)C)cn1)C(F)(F)F (single isomer, unassigned) [Example 159]
2.15

Complete the entry with log10(IC50) for CN(C(=O)C1CCS(=O)(=O)CC1)[C@@H](c1ccc(NC2Cc3cccc(F)c3C2)cn1)C(F)(F)F (single isomer, unassigned) [Example 275]
2.72

Complete the entry with log10(IC50) for CN(C(=O)[C@@H]1CNC(=O)C1)[C@@H](c1ccc(NC2Cc3ccc(Cl)c(F)c3C2)cn1)C(F)(F)F (single isomer, unassigned) [Example 317]
1.86

Complete the entry with log10(IC50) for CN(C(=O)CN1CCNC1=O)[C@@H](c1ccc(NC2Cc3ccccc3C2(C)C)cn1)C(F)(F)F (single isomer, unassigned) [Example 246]
2.52

Complete the entry with log10(IC50) for CN(C(=O)C1CNC1)C(c1ccc(NC2Cc3ccccc3C2(C)C)cn1)C(F)(F)F (single isomer, unassigned) [Example 85]
2.79

Complete the entry with log10(IC50) for CN(C(=O)C1CC2(CCN2CCO)C1)[C@@H](c1ccc(NC2Cc3ccccc3C2(C)C)cn1)C(F)(F)F (single isomer, unassigned) [Example 249]
1.70
